tested on: Brachyury (BRA), TBXT (gene 6862); experiment: CCTE_Deisenroth_DEVTOX-GLR_Ecto_BRA: CCTE's DevTox GLR-Ecto Assay Evaluation of Brachyury (BRA) Protein Expression, Deisenroth Lab
Inconclusive results are not listed. Calls of active or inactive are those of the source. Rule for the calls: active = hit-call score of the fitted dose curve at least 0.9, where 1 is the maximum; inconclusive = response in the unintended direction; inactive = score below 0.9.
Entry note: the call must match one of True = active, False = inactive

Sample answers from the record:
compound="Nc1cccc2c1C(=O)N(C1CCC(=O)NC1=O)C2=O (stereo not given)" class_label=True
compound=O=c1[nH]cc(F)c(=O)[nH]1 class_label=True
compound=CS(=O)(=O)OCCCCOS(C)(=O)=O class_label=False

// query Which result was noted for this compound in the test: CC(=O)Nc1ccc(O)cc1
// result False

// query Which result was noted for this compound in the test: CN(Cc1cnc2nc(N)nc(N)c2n1)c1ccc(C(=O)N[C@@H](CCC(=O)O)C(=O)O)cc1
// result False
